Assay: Cell Titer-fluor cell activity assay in HCV-1b replicon cells (CC50)
Format: cell-based
experimental-endpoint: CC50 at 3 days

Problem: Requested read-out: CC50 at 3 days. Entry: COC(=O)N[C@H](C(=O)N1CCC[C@H]1c1ncc(-c2ccc(-c3ccc(-c4cnc([C@@H]5[C@H]6CC[C@H](C6)[C@H]5C(=O)NCc5nccs5)[nH]4)cc3)cc2)[nH]1)C(C)C [AA_208_ENDOA2]
Solution: > 1 nM

Problem: Requested read-out: CC50 at 3 days. Entry: COC(=O)NC(C(=O)N1CCC[C@H]1c1nc2ccc(-c3ccc(-c4[nH]c([C@@H]5CCCN5C(=O)[C@@H](NC(=O)OC)C(C)OC)c5c4CCC5)cc3)cc2[nH]1)[C@@H](C)OC (stereo partly shown)
Solution: > 1 nM

Problem: Requested read-out: CC50 at 3 days. Entry: COC(=O)N[C@H](C(=O)N1CCC[C@H]1c1ncc(-c2ccc(-c3ccc(-c4cnc([C@H]5C6CCC(C6)[C@@H]5C(=O)NCc5cccnc5)[nH]4)cc3)c(F)c2)[nH]1)C(C)C (stereo partly shown)
Solution: > 1 nM

Problem: Requested read-out: CC50 at 3 days. Entry: COC(=O)N[C@H](C(=O)N1CCC[C@H]1c1ncc(-c2ccc(-c3ccc(-c4cnc(C5C6CCC(C6)[C@@H]5C(=O)NCc5cccnc5)[nH]4)cc3)cc2)[nH]1)[C@@H](C)OC (stereo partly shown)
Solution: > 1 nM

Problem: Requested read-out: CC50 at 3 days. Entry: `COC(=O)N[C@H](C(=O)N1CCC[C@H]1c1ccc(-c2ccc(-c3ccc(-c4cnc([C@@H]5CC6(CC6)CN5C(=O)[C@@H](NC(=O)OC)[C@@H](C)OC)[nH]4)cc3)cc2)[nH]1)[C@@H](C)OC`
Solution: > 1 nM

Problem: Requested read-out: CC50 at 3 days. Entry: COC(=O)N[C@H](C(=O)N1CCC[C@H]1c1ncc(-c2ccc(-c3ccc(-c4cnc(C5C6CCC(C6)[C@@H]5C(=O)N(NC(=O)OC)C(C)C)[nH]4)cc3)c(OC)c2)[nH]1)C(C)C (stereo partly shown)
Solution: > 1 nM

Problem: Requested read-out: CC50 at 3 days. Entry: `COC(=O)N[C@H](C(=O)N1CCC[C@H]1c1ccc(-c2ccc(-c3ccc(-c4cnc([C@@H]5CCCN5C(=O)[C@@H](NC(=O)OC)[C@@H](C)OC)[nH]4)cc3)cc2)[nH]1)C(C)C`
Solution: > 1 nM

Problem: Requested read-out: CC50 at 3 days. Entry: COC(=O)NC(C(=O)N1CCCC1c1[nH]c(-c2ccc(-c3ccc(-c4cnc([C@@H]5CCCN5C(=O)[C@@H](NC(=O)OC)C(C)C)[nH]4)cc3)cc2)c2c1CCC2)C1CCOCC1 (stereo partly shown)
Solution: > 10 nM

Problem: Requested read-out: CC50 at 3 days. Entry: COC(=O)N[C@H](C(=O)N1CCC[C@H]1c1ncc(-c2ccc(-c3ccc(-c4cnc([C@@H]5[C@H]6CC[C@H](C6)[C@H]5C(=O)N[C@H](C)c5cnccn5)[nH]4)cc3)cc2)[nH]1)C(C)C [AA_270_ENDOA2_B]
Solution: > 1 nM

Problem: Requested read-out: CC50 at 3 days. Entry: COC(=O)N[C@H](C(=O)N1CCC[C@H]1c1ncc(-c2ccc(-c3ccc(-c4cnc(C5CC6(C[C@@H]5C(=O)N(NC(=O)OC)C(C)C)OCCO6)[nH]4)cc3)cc2)[nH]1)C(C)C (stereo partly shown)
Solution: > 50 nM

----------
Test system: HCV-1b replicon cells
Experiment: Cell Titer-fluor cell activity assay in HCV-1b replicon cells (CC50)
Format: cell-based
Details: 3 days
experimental-endpoint: CC50

Problem: Requested read-out: CC50. Entry: COC(=O)N[C@H](C(=O)N1CCC[C@H]1c1ncc(-c2ccc(-c3ccc(-c4cnc([C@H]5C6CCC(C6)[C@@H]5C(=O)NC(c5cccnc5)C(C)C)[nH]4)cc3)cc2)[nH]1)C(C)C (single isomer, unassigned) [AA_233_C]
Solution: > 1 nM

Problem: Requested read-out: CC50. Entry: COC(=O)N[C@H](C(=O)N1CCCC1c1ccc(-c2ccc(-c3ccc(-c4cnc(C5CCCN5C(=O)[C@@H](NC(=O)OCCF)C(C)C)[nH]4)cc3)cc2)[nH]1)C(C)C (some centres unmarked) [AG_062]
Solution: > 10 nM

Problem: Requested read-out: CC50. Entry: COC(=O)NC(C(=O)N1CCCC1c1[nH]c(-c2ccc(-c3ccc(-c4cnc([C@@H]5CCCN5C(=O)[C@@H](NC(=O)OC)C(C)C)[nH]4)cc3)cc2)c2c1CCC2)C1CCOC1 (single isomer, unassigned) [AG_025_B]
Solution: > 10 nM

Problem: Requested read-out: CC50. Entry: COC(=O)N[C@H](C(=O)N1CCC[C@H]1c1ncc(-c2ccc(-c3ccc(-c4cnc(C5C6CCC(C6)[C@@H]5C(=O)N[C@H](c5cccnc5)C(C)C)[nH]4)cc3)cc2)[nH]1)[C@@H](C)OC (some centres unmarked) [AA_271_A]
Solution: > 1 nM

Problem: Requested read-out: CC50. Entry: COC(=O)N[C@H](C(=O)N1CC2(C[C@H]1c1ncc(-c3ccc(-c4ccc(-c5[nH]c([C@@H]6CCCN6C(=O)[C@@H](NC(=O)OC)[C@@H](C)OC)c6c5CCC6)cc4)cc3)[nH]1)OCCO2)[C@@H](C)OC [AG_089]
Solution: > 1 nM

Problem: Requested read-out: CC50. Entry: COC(=O)NC(C(=O)N1CCCC1c1[nH]c(-c2ccc(-c3ccc(-c4cnc([C@@H]5CCCN5C(=O)[C@@H](NC(=O)OC)C(C)C)[nH]4)cc3)cc2)c2c1CCC2)C1CCOC1 (single isomer, unassigned) [AG_025_C]
Solution: > 10 nM

Problem: Requested read-out: CC50. Entry: COC(=O)N[C@H](C(=O)N1CCC[C@H]1c1ncc(-c2ccc(-c3ccc(-c4cnc(C5C6CCC(C6)[C@H]5C(=O)N[C@H](c5cccnc5)C(C)C)[nH]4)cc3)cc2)[nH]1)[C@@H](C)OC (some centres unmarked) [AA_271_B]
Solution: > 1 nM

Problem: Requested read-out: CC50. Entry: COC(=O)N[C@H](C(=O)N1CCCC1c1ccc(-c2ccc(-c3ccc(-c4cnc([C@@H]5CCCN5C(=O)[C@@H](NC(=O)OC)[C@@H](C)OC)[nH]4)cc3)cc2)[nH]1)[C@@H](C)OC (single isomer, unassigned) [AG_072_B]
Solution: > 1 nM

----------
Test: Cell Titer-fluor cell activity assay in HCV-1b replicon cells (CC50)
Type: cell-based
Can you tell me CC50 at 3 days for the items I'm about to list?

Problem: Requested read-out: CC50 at 3 days. Entry: `COC(=O)N[C@H](C(=O)N1CCC[C@H]1c1ncc(-c2ccc(-c3ccc(-c4cnc([C@@H]5CCCC[C@H]5C(=O)NCc5cccnc5)[nH]4)cc3)cc2)[nH]1)C(C)C`
Solution: > 10 nM

Problem: Requested read-out: CC50 at 3 days. Entry: COC(=O)N[C@H](C(=O)N1CCC[C@H]1c1ncc(-c2ccc(-c3ccc(-c4cnc(C5C6CCC(C6)[C@@H]5C(=O)NCc5ccc(OC)nc5)[nH]4)cc3)cc2)[nH]1)[C@@H](C)OC (stereo partly shown)
Solution: > 1 nM

Problem: Requested read-out: CC50 at 3 days. Entry: COC(=O)N[C@H](C(=O)N1CCC[C@H]1c1ncc(-c2ccc(-c3ccc(-c4cnc([C@@H]5[C@H]6CC[C@H](C6)[C@H]5C(=O)N[C@@H](C)c5cccnc5)[nH]4)cc3)cc2)[nH]1)C(C)C [AA_204_ENDOA2_A]
Solution: > 1 nM

Problem: Requested read-out: CC50 at 3 days. Entry: `COC(=O)N[C@H](C(=O)N1CCC[C@@H]1c1[nH]c(-c2ccc(-c3ccc(-c4cnc([C@@H]5CCCN5C(=O)[C@@H](NC(=O)OC)C(C)C)[nH]4)cc3)cc2)c2c1CCCO2)C(C)C`
Solution: > 1 nM

Problem: Requested read-out: CC50 at 3 days. Entry: COC(=O)N[C@H](C(=O)N1CCC[C@H]1c1ncc(-c2ccc(-c3ccc(-c4cnc([C@H]5C6CCC(C6)[C@@H]5C(=O)Nc5ccccc5)[nH]4)cc3)cc2)[nH]1)C(C)C (stereo partly shown)
Solution: > 1 nM

Problem: Requested read-out: CC50 at 3 days. Entry: COC(=O)N[C@H](C(=O)N1CCC[C@H]1c1ncc(-c2ccc(-c3ccc(-c4cnc(C5C6CCC(C6)[C@@H]5C(=O)NCc5cccc(N)c5)[nH]4)cc3)cc2)[nH]1)[C@@H](C)OC (stereo partly shown)
Solution: > 1 nM

Problem: Requested read-out: CC50 at 3 days. Entry: COC(=O)N[C@H](C(=O)N1CCC[C@H]1c1ncc(-c2ccc(-c3ccc(-c4cnc(C5C6CCC(C6)[C@@H]5C(=O)NCc5ccco5)[nH]4)cc3)cc2)[nH]1)[C@@H](C)OC (stereo partly shown)
Solution: > 1 nM

Problem: Requested read-out: CC50 at 3 days. Entry: COC(=O)N[C@H](C(=O)N1CCC[C@H]1c1cnc(-c2ccc(-c3ccc(-c4ncc(C5C6CCC(C6)[C@H]5C(=O)N(NC(=O)OC)C(C)C)[nH]4)cc3)cc2C)[nH]1)C(C)C (stereo partly shown)
Solution: > 5 nM

Problem: Requested read-out: CC50 at 3 days. Entry: COC(=O)N[C@H](C(=O)N1CCCC1c1ccc(-c2ccc(-c3ccc(-c4cnc([C@@H]5CCCN5C(=O)[C@@H](NC(=O)OC)C(C)C)[nH]4)cc3)cc2)[nH]1)C(C)C (stereo partly shown)
Solution: > 1 nM

Problem: Requested read-out: CC50 at 3 days. Entry: COC(=O)N[C@H](C(=O)N1CCC[C@H]1c1ncc(-c2ccc(-c3ccc(-c4cnc(C5C6CCC(C6)[C@@H]5C(=O)NCc5cccnc5C(F)(F)F)[nH]4)cc3)cc2)[nH]1)[C@@H](C)OC (stereo partly shown)
Solution: > 1 nM

Problem: Requested read-out: CC50 at 3 days. Entry: COC(=O)N[C@H](C(=O)N1C[C@@H](OC)C[C@H]1c1ncc(-c2ccc(-c3ccc(-c4cnc([C@H]5C6CCC(C6)[C@@H]5C(=O)NCc5cccnc5)[nH]4)cc3)cc2)[nH]1)[C@@H](C)OC (stereo partly shown)
Solution: > 1 nM

Problem: Requested read-out: CC50 at 3 days. Entry: COC(=O)N[C@H](C(=O)N1CCC[C@H]1c1ncc(-c2ccc(-c3ccc(-c4cnc([C@H]5C6CCC(C6)[C@@H]5C(=O)NCc5cccnc5C)[nH]4)cc3)cc2)[nH]1)C(C)C (stereo partly shown)
Solution: > 1 nM

Problem: Requested read-out: CC50 at 3 days. Entry: COC(=O)N[C@H](C(=O)N1CCC[C@H]1c1ncc(-c2ccc(-c3ccc(-c4cnc(C5C6CCC(C6)[C@@H]5C(=O)NCc5cccnc5C(C)C)[nH]4)cc3)cc2)[nH]1)[C@@H](C)OC (stereo partly shown)
Solution: > 1 nM

Problem: Requested read-out: CC50 at 3 days. Entry: `COC[C@H](NC(=O)OC)C(=O)N1CCC[C@H]1c1ccc(-c2ccc(-c3ccc(-c4cnc([C@@H]5CCCN5C(=O)[C@@H](NC(=O)OC)[C@@H](C)O)[nH]4)cc3)cc2)[nH]1`
Solution: > 1 nM

Problem: Requested read-out: CC50 at 3 days. Entry: `COC(=O)N[C@H](C(=O)N1CCC[C@H]1c1[nH]c(-c2ccc(-c3ccc(-c4cnc([C@@H]5CCCN5C(=O)[C@@H](NC(=O)OC)C(C)(C)C)[nH]4)cc3)cc2)c2c1CCC2)C(C)C`
Solution: > 1 nM

Problem: Requested read-out: CC50 at 3 days. Entry: COC(=O)N[C@H](C(=O)N1CCC[C@H]1c1ncc(-c2ccc(-c3ccc(-c4cnc(C5CCCC[C@@H]5C(=O)N(NC(=O)OC)C(C)C)[nH]4)cc3F)cc2)[nH]1)C(C)C (stereo partly shown)
Solution: > 10 nM

Problem: Requested read-out: CC50 at 3 days. Entry: COC(=O)N[C@H](C(=O)N1CCC[C@H]1c1ncc(-c2ccc(-c3ccc(-c4cnc(C5CCCC[C@H]5C(=O)NCc5cccnc5)[nH]4)cc3)cc2)[nH]1)C(C)C (stereo partly shown)
Solution: > 10 nM

Problem: Requested read-out: CC50 at 3 days. Entry: COC(=O)N[C@H](C(=O)N1CCC[C@H]1c1ncc(-c2ccc(-c3ccc(-c4cnc([C@H]5C6CCC(C6)[C@@H]5C(=O)NCc5cccc(N)c5)[nH]4)cc3)cc2)[nH]1)C(C)C (stereo partly shown)
Solution: > 1 nM

Problem: Requested read-out: CC50 at 3 days. Entry: COC(=O)N[C@H](C(=O)N1CCC[C@H]1c1ncc(-c2ccc(-c3ccc(-c4[nH]c([C@H]5CCCN5C(=O)[C@@H](NC(=O)OC)C(C)OC)c5c4COC5)cc3)cc2)[nH]1)C(C)C (stereo partly shown)
Solution: > 5 nM
